Attribution: the supplement of paper PMC10724198

Test system: Saccharomyces cerevisiae
Test: protein stability index of tFT-peptide fusion in deletion strain of DAS1 (PSI (0-1 scale)); higher = more stable (slower turnover)
Attribute: protein stability index
Please reply with the value in numeric form only.

residues=PDKRNHLIKNLN readout_value=0.54
residues=LVVYLSCVACIA readout_value=0.0258
residues=CTSCGYKFLTNN readout_value=0.696
residues=RLIQPLPVQFSN readout_value=0.601
residues=LVCYLSCVACIN readout_value=0.0279

In plain terms, LVHYLSCVACIN has a documented protein stability index of 0.188

Reported protein stability index ( ARWRVGLCRGAS ) = 0.671

Value of protein stability index reported for the sequence CKHKKGQKQKIN is 0.568

* * *

System: Saccharomyces cerevisiae
Assay: protein stability index of tFT-peptide fusion (C-terminal peptide) (PSI (0-1 scale)); higher = more stable (slower turnover)
Conditions: genetic background: wild type; temperature: 30 C
protein stability index vs 0.7: at or above is true (1), below is false (0).

// below: answered sequences
residues="KNEQDEDKWDDF [GCS1 C-terminal 12 aa]" label_class="false (0)"
residues="FGRKLKKIFGRK [SEG2 C-terminal 12 aa]" label_class="false (0)"
residues="VESTRETGGCNC [YPT53 C-terminal 12 aa]" label_class="false (0)"
residues="IMDKLRAMKNRM [GLO2 C-terminal 12 aa]" label_class="false (0)"
residues="EEKTKKEKSLLQ [NPP2 C-terminal 12 aa]" label_class="true (1)"

query: Has GGFDDGFDGSDF [WWM1 C-terminal 12 aa] a recorded protein stability index greater than or equal to 0.7?
result: true (1)

query: Is protein stability index at least 0.7? Consider CAVGGPEKLKFY [BUD3 C-terminal 12 aa]
result: true (1)

query: Check the entry RIPKELTGTVRF [GAT4 C-terminal 12 aa] : does protein stability index equal or exceed 0.7?
result: false (0)

query: Form field: protein stability index at least 0.7? Entry: PAKFGIQFQYST [MDM10 C-terminal 12 aa]
result: false (0)

query: Hi, just wondering whether AVNGSDGQHCQI [AVT2 C-terminal 12 aa] shows protein stability index of 0.7 or higher.
result: false (0)

query: Is protein stability index for AREAVVRAGFDS [YIH1 C-terminal 12 aa] at or above 0.7?
result: true (1)

query: Entry SKKDYSIDSVEM [TPO2 C-terminal 12 aa] : is its protein stability index no less than 0.7?
result: false (0)

query: I'd appreciate it if you could say whether GYSPKPISKKEE [ALE1 C-terminal 12 aa] has protein stability index at least equal to 0.7.
result: false (0)

query: Kindly determine if protein stability index recorded for FYNIHDERIREQ [YKL162C-A C-terminal 12 aa] is above or exactly 0.7.
result: false (0)

query: Hi, just wondering whether LNEPKDSAENKI [SRC1 C-terminal 12 aa] shows protein stability index of 0.7 or higher.
result: false (0)

* * *

Tested on: Saccharomyces cerevisiae
Experiment: protein stability index of tFT-peptide fusion (C-terminal peptide) (PSI (0-1 scale)); higher = more stable (slower turnover)
Conditions: genetic background: wild type; temperature: 30 C
Reported metric: protein stability index
Form: value (number only, do not type unit).

Example results:
residues=FLCLLASFVVCF reported_metric="protein stability index" readout_value=0.363
residues=VNVCIAEYGNDR reported_metric="protein stability index" readout_value=0.768
residues=SPPPLHPPPPAL reported_metric="protein stability index" readout_value=0.637
residues=FPTSPPLIALLD reported_metric="protein stability index" readout_value=0.669
residues=LLPPSHRASPRQ reported_metric="protein stability index" readout_value=0.694
residues=SVKESKIQQNRE reported_metric="protein stability index" readout_value=0.705
residues=YQFAALRFTFPL reported_metric="protein stability index" readout_value=0.647
residues=KVDYIKKKNSRE reported_metric="protein stability index" readout_value=0.714
residues=GGVGGCARVWPR reported_metric="protein stability index" readout_value=0.654
residues=WRVVVSCALHVC reported_metric="protein stability index" readout_value=0.0857

// protein stability index value for GCYWPKTLGILC : 0.465

According to the records, this sequence LAYAPLNGDVPY displays protein stability index of 0.68

For reference, reported protein stability index for PPHPPPPSPTPP stands at 0.656

Value of measured protein stability index for the entry SSLPRLGSSPRR : 0.66

* * *

System: Saccharomyces cerevisiae
Test: protein stability index of tFT-peptide fusion (C-terminal peptide) (PSI (0-1 scale)); higher = more stable (slower turnover)
Conditions: genetic background: wild type; temperature: 30 C
Reported metric: protein stability index

residues=LLDGASALIFGG readout_value=0.617

Reported protein stability index for PLPPVPRTPTPR was 0.662

Lab note: measured protein stability index of GGCVWWSWGRGG was 0.652

In plain terms, GGGGGLVVFGWK has a documented protein stability index of 0.687

* * *

# protein stability index per entry
Test system: Saccharomyces cerevisiae
Assay: protein stability index of tFT-peptide fusion (C-terminal peptide) (PSI (0-1 scale)); higher = more stable (slower turnover)
Conditions: genetic background: wild type; temperature: 30 C
No unit in the answer, only the number.

residues=HSLPPLRPYPSP readout_value=0.755
residues=ANKKKKKIKTKH readout_value=0.757
residues=RGAHVTRPGTRD readout_value=0.66

The reported Saccharomyces cerevisiae protein stability index of LPPRPPTHSPPP is 0.722

Known value: Saccharomyces cerevisiae protein stability index of the sequence PPRRPPLAPPPP equals 0.693

The reported Saccharomyces cerevisiae protein stability index of QYQDRHIDRSGR is 0.657

The measured protein stability index that SLSPLPCTVLRL showed for Saccharomyces cerevisiae is 0.684

Case GPRRLNAYADPF , Saccharomyces cerevisiae, protein stability index recorded as 0.722

Field protein stability index (Saccharomyces cerevisiae), entry QRSPNRISPADY : 0.798

Case SSSLSRLIPRDV , Saccharomyces cerevisiae, protein stability index recorded as 0.774

Hey, Saccharomyces cerevisiae data for PISPPSFRSPTP : protein stability index came out at 0.691

Measured protein stability index (Saccharomyces cerevisiae), entry GGGGGCGRAGGG : 0.714

Considering RARCFGGFCAIP , its protein stability index with Saccharomyces cerevisiae was recorded as 0.724

Value (protein stability index, Saccharomyces cerevisiae) for record GGRVLKFLLGRL = 0.668

Result for LSAVHYNRAVFA , tested on Saccharomyces cerevisiae, protein stability index: 0.514

Saccharomyces cerevisiae assay, sequence GRRRGWAWGVWG , recorded protein stability index = 0.683

Readout protein stability index for SIRPPPPSSFPA , test system Saccharomyces cerevisiae, was 0.806

Reading of protein stability index for SPFLFPRTVVGA with Saccharomyces cerevisiae: 0.671

Let me check: VVVVWVVVEIVR , system Saccharomyces cerevisiae, measured protein stability index is 0.169

* * *

Tested on: Saccharomyces cerevisiae
Assay: protein stability index of tFT-peptide fusion (C-terminal peptide) (PSI (0-1 scale)); higher = more stable (slower turnover)
Settings: genetic background: wild type; temperature: 30 C
Everything with protein stability index lower than 0.7 is rule not met; everything else, including exactly 0.7, is rule met.

residues=YCAAVCFWGLYC label_class="rule not met"
residues=PPSFLHPTPRPR label_class="rule not met"
residues=SSPAPPPPSPAS label_class="rule met"
residues=SGPTPCRSPRLL label_class="rule not met"
residues=GWRGGCRSGVPE label_class="rule not met"

query: Please indicate if the recorded protein stability index for EHIRPNMSSYAV meets or exceeds 0.7.
result: rule met

query: Given the entry KKNKGKGREVRI , answer whether its protein stability index meets or surpasses 0.7.
result: rule not met

query: State whether the measured protein stability index reaches 0.7, counting equality as reaching it, for WLIKKIKTKQTR
result: rule met

query: Say whether SVMTFVFFISAF shows protein stability index of 0.7 or more.
result: rule not met

query: Check this sequence for protein stability index at or above 0.7: STVESPNSLPPL
result: rule not met

query: I'd appreciate it if you could say whether PPRPRPPLPALP has protein stability index at least equal to 0.7.
result: rule met

query: Determine whether measured protein stability index meets or exceeds 0.7 for SHRDNEKPILSA
result: rule met

query: Does NFLPSAARTRTP have a reported protein stability index of at least 0.7?
result: rule not met

query: Is reported protein stability index greater than or equal to 0.7 here: QRFASFFFLHLS
result: rule not met

query: Determine whether this sequence has protein stability index no lower than 0.7: KVALWRRGVLAA
result: rule not met

* * *

Tested on: Saccharomyces cerevisiae
Assay: protein stability index of tFT-peptide fusion (C-terminal peptide) (PSI (0-1 scale)); higher = more stable (slower turnover)
Conditions: genetic background: wild type; temperature: 30 C
Reported metric: protein stability index
Write the value as a bare number.

Recorded protein stability index, per entry:
residues=GGGSGGEAVRVW reported_metric="protein stability index" readout_value=0.645
residues=DANRSPEYSLNG reported_metric="protein stability index" readout_value=0.717
residues=RGVWWWWGVAGA reported_metric="protein stability index" readout_value=0.749
residues=CFYSFWQVTRFL reported_metric="protein stability index" readout_value=0.477
residues=NKKIYRTKIKKL reported_metric="protein stability index" readout_value=0.592

Value of measured protein stability index for the entry GVAVLAGWEVLG : 0.653

For IEWGPITTLTQT the sequence record lists protein stability index as 0.718
